- STUDY_TARGET: cyclooxygenase (Homo sapiens, UniProt P23219)
- Construct: incubating a test compound with heparinised human blood, prior to challenge with the calcium ionophore A23187; endogenous in cells
- Sequence (P23219 24-599): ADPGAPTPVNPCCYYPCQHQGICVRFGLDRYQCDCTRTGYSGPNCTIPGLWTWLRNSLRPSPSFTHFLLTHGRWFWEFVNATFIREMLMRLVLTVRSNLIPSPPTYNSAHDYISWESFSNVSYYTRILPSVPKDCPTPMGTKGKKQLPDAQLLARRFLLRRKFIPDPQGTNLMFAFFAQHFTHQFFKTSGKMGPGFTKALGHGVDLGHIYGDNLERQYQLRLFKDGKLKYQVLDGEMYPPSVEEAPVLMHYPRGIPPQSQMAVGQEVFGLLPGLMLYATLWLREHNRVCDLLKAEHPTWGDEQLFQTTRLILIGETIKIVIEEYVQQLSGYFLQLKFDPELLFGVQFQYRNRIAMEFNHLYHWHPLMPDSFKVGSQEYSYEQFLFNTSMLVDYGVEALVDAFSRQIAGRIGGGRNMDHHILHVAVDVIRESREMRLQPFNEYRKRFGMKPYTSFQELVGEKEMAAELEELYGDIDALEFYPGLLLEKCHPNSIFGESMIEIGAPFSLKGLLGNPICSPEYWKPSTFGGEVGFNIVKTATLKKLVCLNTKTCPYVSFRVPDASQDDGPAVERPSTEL
- METHOD_NOTES: Test b) heparinised human blood challenged with A23187, TxB2 radioimmunoassay (cyclooxygenase)
- PROTOCOL_CONDITIONS: A23187, T×B2
pIC50: −log10 of the molar value.
RECORDED_METRIC: pIC50

> print(dat)
                                   compound  result
1  CO[C@H]1CCC[C@@]1(OC)c1cccc(OCC#Cc2ccccn2)c1 (relative stereo)  < 4.40
